FYI, the data here is from PubChem BioAssay (NCI).

test system: A549 NSCLC; test: NCI tumour cell line growth inhibition, 48 h
Measured TGI by item
MEASURE_NAME: TGI

| COMPOUND | STUDY_SYSTEM | REPORTED |
| --- | --- | --- |
| COC(=O)c1nn(C(=N)c2ccc(Cl)cc2)c2c1CCC2 | A549 NSCLC | > 100 µM |
| Nc1c(C(=O)Nc2cccc(Cl)c2Cl)sc2nc3c(cc12)C(=O)CCC3 | A549 NSCLC | > 100 µM |
| CCN(CC)c1ccc(/C=C/C=C2\NC(=O)NC2=O)cc1 | A549 NSCLC | 32.7 µM |
| OCCN1CCN(CC/C=C2/c3ccccc3Sc3ccc(Cl)cc32)CC1 | A549 NSCLC | 29.9 µM |
| O=c1[nH]c(=S)c2cc3c(=S)[nH]c(=O)n(CCO)c3nc2n1CCO | A549 NSCLC | > 100 µM |
| O=C1C(=Cc2ccc(Cl)c(Cl)c2)C([O-])=C([P+](c2ccccc2)(c2ccccc2)c2ccccc2)C([O-])=C1[P+](c1ccccc1)(c1ccccc1)c1ccccc1 | A549 NSCLC | 10.4 µM |
| CN(Cc1cc(Cl)c(Cl)cc1NC(=O)CN)[C@H]1CCCC[C@@H]1N1CCCC1 | A549 NSCLC | > 100 µM |
| CC1=NN(c2nc(N)nc(/C=C\c3ccc([N+](=O)[O-])s3)n2)C(C)(C)C1 | A549 NSCLC | > 100 µM |
| CN1CCN(C2=CC(=O)c3c(O)ccc(O)c3C2=O)CC1 | A549 NSCLC | 3.5 µM |
| C=CCn1c(-c2ccc([N+](=O)[O-])cc2)csc1=N | A549 NSCLC | > 100 µM |
| Cn1cccc1/C=C/c1cc(Br)c(/C=C/c2cccn2C)cc1Br | A549 NSCLC | 39.1 µM |
| O=C(O)c1cc2ccccc2c2c1C(=O)c1ccccc1-2 | A549 NSCLC | > 100 µM |
| Oc1cc(Br)cc2cc(Cl)cnc12 | A549 NSCLC | > 56.1 µM |
| CCN1CCC(O)(/C=C/c2ccc(OC)cc2)C(C(=O)/C=C/c2ccc(OC)cc2)C1 (stereo not drawn) | A549 NSCLC | 34 µM |
| O=C1CC2CCC(C1)S2=O (stereo not drawn) | A549 NSCLC | > 100 µM |
| CCOC(=O)/C=C(\C(=O)OCC)n1ccc(=O)[nH]c1=O | A549 NSCLC | > 84.5 µM |
| Oc1ccc(Cc2cc(Cl)cc(Cl)c2O)cc1Cl | A549 NSCLC | 41.3 µM |
| Cc1cc(S(=O)(=O)/N=C(/NN)NNc2cccc(C(F)(F)F)n2)c(S)cc1Cl | A549 NSCLC | 44.1 µM |
| O=C1NCCS(=O)(=O)N2CCC[C@@H]12 | A549 NSCLC | > 100 µM |
| COc1c(B(O)O)cc(F)cc1-c1nc2ccc3[nH]ncc3c2c2c1CCCC2 | A549 NSCLC | 16 µM |
| O=C1C(Cl)=C(Nc2cccc(C(F)(F)F)c2)C(=O)N1Cc1ccc(Cl)cc1 | A549 NSCLC | 16.9 µM |
| CC(=O)c1cc(O)c2ccccc2c1O | A549 NSCLC | > 100 µM |
| CC(=C/c1ccccc1)/C=C1/NC(=S)N(/C=C2\C(=O)Oc3ccccc3C2=O)C1=O | A549 NSCLC | > 100 µM |
| CN(C)C(=O)Oc1c(-c2ccccc2)c(=O)n2c3ccccc3n3c(=O)n(C)c(=O)c1c23 | A549 NSCLC | > 100 µM |
| COc1cc2c3c(n(C)c(=O)c2cc1OC)-c1cc2c(cc1/C3=C\CCNCCCN)OCO2 | A549 NSCLC | > 100 µM |
| O=NN(CCCl)C(=O)NC1CCC(CC2CCC(NC(=O)N(CCCl)N=O)CC2)CC1 (stereo not drawn) | A549 NSCLC | > 100 µM |
| O=C(NC(=O)c1ccccc1[N+](=O)[O-])Nc1ccc(Oc2ncc(Cl)cn2)c(C(F)(F)F)c1 | A549 NSCLC | > 100 µM |
| CC(C)=CC(=O)Cc1nc2ccc([N+](=O)[O-])cc2[nH]c1=O | A549 NSCLC | > 100 µM |
| O=[N+]([O-])C(Cl)=C/C(=C(\Cl)SCc1ccccc1)[N+](=O)[O-] | A549 NSCLC | 73.5 µM |
| Cn1c(=O)c2/c(n(C)c1=O)=N\C=c1\c(=O)n(C)c(=O)n(C)\c1=N\C=2 | A549 NSCLC | > 100 µM |
| Cc1ccc(NC(=O)CSC(N)=O)cc1C | A549 NSCLC | > 100 µM |
| O=S1Nc2c(Cl)cc(Cl)c(Cl)c2S1 (stereo not drawn) | A549 NSCLC | > 100 µM |
| O=C(CSc1nc2ccccc2c(=O)n1-c1ccccc1)N=Nc1c(O)[nH]c2ccc(F)cc12 | A549 NSCLC | 21.6 µM |
| N#CC1C=Cc2c(ccc3ccccc23)N1C(=O)c1ccccc1 (stereo not drawn) | A549 NSCLC | > 100 µM |
| Cc1cccc2c(O)cc(=O)oc12 | A549 NSCLC | > 100 µM |
| CCc1cccc(C)c1NC(=O)CC1C(=O)Nc2ccccc2S1(=O)=O (stereo not drawn) | A549 NSCLC | 35.2 µM |
| O=C(/C=C\c1cccc2ccccc12)c1cccc2ccccc12 | A549 NSCLC | 36.5 µM |
| Oc1c(CN2CCN(c3ccccc3)CC2)cc(Br)c2cccnc12 | A549 NSCLC | > 100 µM |
| O=C(CCc1ccc(O)cc1)N/N=C/c1cc(Br)ccc1O | A549 NSCLC | > 100 µM |
| O=C(O)CCC(NC(=O)c1ccc(Nc2nc3cc(C(F)(F)F)ccc3nc2C(=O)O)cc1)C(=O)O (stereo not drawn) | A549 NSCLC | > 100 µM |
| COc1ccc(Nc2nc(N)c(C(=O)c3cccs3)s2)cc1 | A549 NSCLC | > 47.8 µM |
| COc1ccc2c(c1)OC[C@@H]1c3cc(O)c(OCc4ccccc4)cc3O[C@H]21 | A549 NSCLC | 97.1 µM |
| C[N+](C)(CCNC(=O)c1cccc2cc3ccccc3nc12)Cc1ccc([N+](=O)[O-])s1 | A549 NSCLC | > 25 µM |

---

system: SW-620 colon; assay: NCI tumour cell line growth inhibition, 48 h; in the data active means GI50 below about 0.43 µM; inactive means the rest
Classes used: TRUE = active, FALSE = inactive

| COMPOUND | STUDY_SYSTEM | LABEL_CLASS |
| --- | --- | --- |
| N#CC1C=Cc2c(ccc3ccccc23)N1C(=O)c1ccccc1 (stereo not given) | SW-620 colon | TRUE |
| CC(=O)[O-].O=C([CH-]C(=O)c1ccccc1)c1ccccc1.O=C([CH-]C(=O)c1ccccc1)c1ccccc1.[Sm+3] | SW-620 colon | FALSE |
| Cc1c(Cl)cccc1NC(=O)c1sc2nc3c(cc2c1N)CCCCC3 | SW-620 colon | TRUE |
| Cc1cc(C(=O)c2ccccc2)c(C)c2c1[nH]c1ccc(Cl)cc12 | SW-620 colon | TRUE |
| CCCCCCCCCCCCCCCC1=NC(C)(C)CN1C(C)C | SW-620 colon | FALSE |

---

Measured TGI by item
tested on: SF-295 CNS; assay: NCI tumour cell line growth inhibition, 48 h

| MOLECULE | MEASUREMENT_UNIT | MODIFIER | TGI |
| --- | --- | --- | --- |
| C=C1C(=O)OC2CC3(C)OC3CC/C(C)=C/C(OC(C)=O)C12 (centres undefined) | µM | = | 27.4 |
| Cc1ccc(N=C2C(=Nc3ccc(C)cc3)N(c3ccc(C)cc3)C(=S)N2C(=O)c2ccccc2)cc1 | µM | = | 32.3 |
| CCCCCn1c(C)cc(/C=C\c2ccc3cc(C)ccc3[n+]2C)c1C | µM | = | 0.595 |
| C=CC1=C(C)C2=NC1=CC1=NC(=C(CC)/C1=C\O)C=C1N=C3C(=C1C)C(=O)[C@H](C(=O)OC)C3=C1NC(=C2)[C@@H](C)[C@@H]1CCC(=O)O | µM | > | 100 |

---

tested on: SF-268 CNS; assay: NCI tumour cell line growth inhibition, 48 h

| MOLECULE | TGI |
| --- | --- |
| C=C1C(=O)O[C@H]2[C@H]1CC/C(COC(=O)NCc1ccc(Cn3c(=O)sn(-c4ccccc4)c3=O)cc1)=C\CC[C@@]1(C)O[C@@H]21 | 5 µM |
| O=c1ccc2ccc(O)cc2o1 | > 100 µM |
| COc1ccc(C[C@H](N)C(=O)N2C[C@@H](CO)C[C@@H](n3ccc(=O)[nH]c3=O)C2)cc1 | > 100 µM |
| Cc1cn(S(=O)(=O)c2ccccc2)c2c(OCc3ccccc3)cc(NS(C)(=O)=O)cc12 | > 77.9 µM |
| COC(=O)C(NC(=O)c1ccccc1)C(c1ccc(Cl)cc1)P(=O)(OC)OC (stereo not given) | > 100 µM |
